- studyTarget: Cyclic GMP-AMP synthase (Homo sapiens, UniProt Q8N884)
- Sequence (Q8N884 whole entry, the tested form may be a part): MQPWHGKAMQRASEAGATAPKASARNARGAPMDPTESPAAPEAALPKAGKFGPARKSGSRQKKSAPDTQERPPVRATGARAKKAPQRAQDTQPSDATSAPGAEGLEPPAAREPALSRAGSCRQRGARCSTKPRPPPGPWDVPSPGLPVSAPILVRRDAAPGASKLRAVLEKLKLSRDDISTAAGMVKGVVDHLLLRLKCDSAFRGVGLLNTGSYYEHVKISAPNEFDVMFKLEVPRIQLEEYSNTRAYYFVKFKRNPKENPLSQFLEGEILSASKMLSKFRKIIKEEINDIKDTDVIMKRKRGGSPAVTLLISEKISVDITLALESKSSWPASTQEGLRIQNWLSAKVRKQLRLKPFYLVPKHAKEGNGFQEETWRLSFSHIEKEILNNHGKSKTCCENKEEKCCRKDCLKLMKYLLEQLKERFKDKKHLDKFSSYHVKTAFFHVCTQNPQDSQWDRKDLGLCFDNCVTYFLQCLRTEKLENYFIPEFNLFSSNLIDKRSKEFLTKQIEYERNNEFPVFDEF
- measurementProtocol: Inhibition of human cGAS (2 to 522 residues) expressed in Sf9 insect cells assessed as reduction in cGAMP level using ISD DNA as substrate in presence of ATP and GTP incubated for 1 hr followed by Cy5-labeled cGAMP addition measured after 1 hr by fluorescence polarization assay
metricName: IC50 (µM)

# smiles, metricName, resultUnit, testValue
records = [
    ("Oc1cc(-c2ccccc2)nc2nnnn12", "IC50", "µM", 78),
]
